Please respond with reported composite z-score for every item in the list.
subject of test: Neurogenic locus notch homolog protein 3 (Homo sapiens) (UniProt Q9UM47)
Sequence (Q9UM47 whole entry, looked up): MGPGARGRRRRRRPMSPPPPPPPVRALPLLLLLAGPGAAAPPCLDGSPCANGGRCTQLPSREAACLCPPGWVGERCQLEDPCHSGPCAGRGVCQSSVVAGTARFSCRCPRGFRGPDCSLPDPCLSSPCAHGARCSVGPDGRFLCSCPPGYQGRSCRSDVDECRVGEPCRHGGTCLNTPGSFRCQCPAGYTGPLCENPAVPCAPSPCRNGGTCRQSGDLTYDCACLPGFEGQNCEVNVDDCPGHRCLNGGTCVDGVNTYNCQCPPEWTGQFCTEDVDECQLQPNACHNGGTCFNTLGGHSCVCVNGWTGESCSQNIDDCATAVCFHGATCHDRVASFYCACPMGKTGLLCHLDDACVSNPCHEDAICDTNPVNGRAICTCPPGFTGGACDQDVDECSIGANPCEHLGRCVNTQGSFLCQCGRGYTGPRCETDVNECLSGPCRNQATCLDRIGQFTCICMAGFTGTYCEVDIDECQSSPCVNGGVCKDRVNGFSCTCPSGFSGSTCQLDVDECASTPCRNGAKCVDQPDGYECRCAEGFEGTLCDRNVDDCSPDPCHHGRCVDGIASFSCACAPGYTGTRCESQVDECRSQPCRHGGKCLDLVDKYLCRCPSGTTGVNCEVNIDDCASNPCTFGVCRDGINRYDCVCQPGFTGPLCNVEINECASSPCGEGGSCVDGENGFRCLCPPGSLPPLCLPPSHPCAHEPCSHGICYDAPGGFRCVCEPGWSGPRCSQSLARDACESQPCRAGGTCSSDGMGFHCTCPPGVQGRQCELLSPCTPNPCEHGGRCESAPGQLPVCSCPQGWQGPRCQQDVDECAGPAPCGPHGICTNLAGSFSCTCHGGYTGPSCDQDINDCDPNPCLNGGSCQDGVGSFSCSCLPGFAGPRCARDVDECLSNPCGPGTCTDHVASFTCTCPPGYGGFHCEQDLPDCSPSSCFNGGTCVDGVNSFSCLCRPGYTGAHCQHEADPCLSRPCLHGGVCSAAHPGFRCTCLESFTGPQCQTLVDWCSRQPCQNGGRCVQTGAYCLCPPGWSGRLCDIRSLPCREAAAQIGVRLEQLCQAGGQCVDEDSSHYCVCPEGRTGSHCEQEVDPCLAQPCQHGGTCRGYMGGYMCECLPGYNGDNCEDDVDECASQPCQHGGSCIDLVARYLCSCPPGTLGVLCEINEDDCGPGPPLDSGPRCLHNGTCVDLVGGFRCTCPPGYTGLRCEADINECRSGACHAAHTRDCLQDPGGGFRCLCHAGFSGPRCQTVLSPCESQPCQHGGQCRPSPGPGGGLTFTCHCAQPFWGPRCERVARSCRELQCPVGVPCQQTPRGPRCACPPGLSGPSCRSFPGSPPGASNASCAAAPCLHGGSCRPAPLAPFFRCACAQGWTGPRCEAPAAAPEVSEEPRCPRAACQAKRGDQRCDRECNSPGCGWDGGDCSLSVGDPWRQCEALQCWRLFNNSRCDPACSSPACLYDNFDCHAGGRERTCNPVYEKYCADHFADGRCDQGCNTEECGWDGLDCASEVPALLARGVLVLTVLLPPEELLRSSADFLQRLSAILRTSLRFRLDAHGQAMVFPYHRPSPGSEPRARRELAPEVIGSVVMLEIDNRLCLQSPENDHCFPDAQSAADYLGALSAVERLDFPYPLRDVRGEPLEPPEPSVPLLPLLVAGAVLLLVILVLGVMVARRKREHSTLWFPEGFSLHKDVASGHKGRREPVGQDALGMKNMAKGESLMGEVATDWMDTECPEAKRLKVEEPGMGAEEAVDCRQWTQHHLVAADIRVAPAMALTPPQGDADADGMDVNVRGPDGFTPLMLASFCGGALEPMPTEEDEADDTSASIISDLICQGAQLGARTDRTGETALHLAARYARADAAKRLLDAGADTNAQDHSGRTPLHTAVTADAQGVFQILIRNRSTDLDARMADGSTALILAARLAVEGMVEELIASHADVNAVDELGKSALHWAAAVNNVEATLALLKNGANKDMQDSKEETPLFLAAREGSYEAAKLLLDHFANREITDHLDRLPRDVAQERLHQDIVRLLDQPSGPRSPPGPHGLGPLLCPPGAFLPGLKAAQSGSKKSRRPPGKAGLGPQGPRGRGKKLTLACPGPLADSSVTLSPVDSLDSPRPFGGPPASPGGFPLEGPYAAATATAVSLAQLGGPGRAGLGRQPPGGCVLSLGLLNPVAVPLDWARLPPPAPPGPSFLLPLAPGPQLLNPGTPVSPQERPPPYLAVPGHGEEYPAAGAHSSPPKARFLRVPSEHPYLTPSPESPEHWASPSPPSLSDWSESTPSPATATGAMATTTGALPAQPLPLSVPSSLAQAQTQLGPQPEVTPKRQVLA
assay overview: small molecules binding NOTCH3 protein – biochemical, 635/667 nm fluorescence, primary screen (AID 1096)
condition info: small-molecule microarray, 635 nm fluorescence, higher = more signal
Answers are plain numbers.

CCCC[C@@H]1C[C@H]1[C@@H](NC(=O)c1cccnc1)c1ccc(Cl)cc1
-2.46
COc1ccc([Si](C)(C)[C@@H]2[C@@H](CCO)O[C@]3(C(=O)N(Cc4cccc(N5CCOC5=O)c4)c4ccccc43)[C@H]2C)cc1
0.797
CC(C)OC(=O)C=C1C[C@@H](c2cccc(Cl)c2)O[C@@H](c2cccc(Cl)c2)O1
-0.735
COc1ccc(CCNC(=O)[C@@]2(c3ccc([N+](=O)[O-])cc3)CC(=O)N(CC34CC5CC(CC(C5)C3)C4)[C@@H]2c2ccc(CO)cc2I)cc1
1.1
C=CC[C@]1(C(N)=O)N=C(c2ccc(OCCCO)cc2)O[C@H]1c1ccccc1
-0.674
[N-]=[N+]=Nc1ccccc1C[C@@]1(C(=O)N2CCCCC2)N=C(c2ccc(OCCCO)cc2)O[C@@H]1c1ccccc1N=[N+]=[N-]
0.884

Hi! Can you tell me composite z-score for each of these compounds?
1. CCCCC(=C=CC[C@H](O)c1cccc(OCCO)c1)C[C@H](O)c1ccccn1
2. O=C1O[C@H](c2ccccc2)[C@H](c2ccccc2)N2[C@H]1[C@@H](C(=O)NC[C@H](O)c1ccccc1)[C@]1(C(=O)Nc3ccc(C#CC4=CCCCC4)cc31)[C@H]2c1ccccc1OCCO
3. CC(CO)N1C(=O)[C@@H]2C3C(=O)OCCC/C=C\[C@H]3OC23C=CCN(CCN2CCOCC2)C(=O)[C@@H]13 (stereo partly specified)
4. C[N+](C)(C)CCCC[C@@H]1NC(=O)[C@@H]2C[C@H](C(=O)NCCCCCCNC(=O)CS)[C@H](c3ccc(O)cc3)N2C1=O
5. O=c1cccc(-c2ccccc2Cl)o1
6. C#CCN(C/C=C/c1ccccc1)[C@H](CO)c1ccccc1

[-0.153, 0.786, 0.159, -0.627, -0.691, 0.39]

Hi! Can you tell me composite z-score for each of these compounds?
1. COc1ccc([Si](C)(C)[C@@H]2[C@@H](CC(=O)N3Cc4ccccc4C[C@H]3CO)O[C@]3(C(=O)N(Cc4cccc(N5CCC5=O)c4)c4ccccc43)[C@H]2C)cc1
2. O=C(CS)NCCCCCNC(=O)[C@H]1C[C@H]2C(=O)NCC(=O)N2[C@H]1c1ccc(O)cc1
3. C=C(CCCC)/C(=C/C[C@H](OC(C)=O)c1ccccc1OCCO)c1cnc2ccccc2c1
4. CC1CC/C=C\[C@H]2OC34C=CCN(Cn5nnc6ccccc65)C(=O)[C@H]3N(CCCCCO)C(=O)[C@@H]4C2C(=O)O1 (stereo partly specified)

1: 0.87; 2: -0.905; 3: 1.1; 4: -0.432
